# Target Or Test System: IMP-1 (Serratia marcescens)
# Sequence (P52699 whole entry, looked up): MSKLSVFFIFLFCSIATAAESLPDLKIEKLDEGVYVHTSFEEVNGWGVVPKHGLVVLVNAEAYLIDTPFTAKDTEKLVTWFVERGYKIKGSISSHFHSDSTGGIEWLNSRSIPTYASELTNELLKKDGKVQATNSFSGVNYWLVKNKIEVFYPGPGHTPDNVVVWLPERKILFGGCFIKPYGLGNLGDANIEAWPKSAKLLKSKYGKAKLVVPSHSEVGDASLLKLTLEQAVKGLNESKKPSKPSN
# Method Notes: biochemical
# Type: biochemical
# Assay Setup: fluorescence assay with CCF2-FA substrate; read-out: IMP-1 IC50
Result Type: pIC50
Please treat pIC50 as minus the base-10 logarithm of the molar concentration.

These recorded examples may help you get a feel for the data.
- Structure String: "NS(=O)(=O)c1c(C(F)(F)F)ccc(N2CCC3(CCCNC3)CC2)c1-c1nnn[nH]1"
  pIC50: 7.25
- Structure String: "NC(=O)c1cccc(-c2cccc(S(N)(=O)=O)c2-c2nn[nH]n2)c1"
  pIC50: 6.24
- Structure String: "Cc1cccc(Cc2cccc(S(N)(=O)=O)c2-c2nnn[nH]2)c1"
  pIC50: 6.41
- Structure String: "NS(=O)(=O)c1nccc(NC2CCCCC2)c1-c1nnn[nH]1"
  pIC50: 5.84
- Structure String: "NS(=O)(=O)c1c(C(F)(F)F)ccc(-c2cccn3ncnc23)c1-c1nnn[nH]1"
  pIC50: 7.85
- Structure String: "NS(=O)(=O)c1cccc(-c2ccc3c(c2)C(=O)NC3)c1-c1nn[nH]n1"
  pIC50: 7.14
- Structure String: "COc1cc(-c2cccc(S(N)(=O)=O)c2-c2nnn[nH]2)ccn1"
  pIC50: 7.20
- Structure String: "NS(=O)(=O)c1cccc(-c2ccc(S(=O)(=O)NC3CC3)cc2)c1-c1nn[nH]n1"
  pIC50: 7.78

Here is another molecule to look at.
Per the record, NS(=O)(=O)c1cccc(-c2cc(F)cc(F)c2)c1-c1nnn[nH]1 has pIC50 of 6.75
